This section presents compounds with their documented response vs control in vivo at 5 mg/kg values.
Test system: ICR mice
measurement-protocol: Test of increase in fecal protein concentration using mice
Assay type: in vivo, mouse
conditions: Mus musculus, po, 9 h, 5 mg/kg oral, male ICR mice, feces collected 3 to 9 hours after feeding started, control group = 1; read-out: Fecal protein, Folds (vs. control)
Protocol: 2. Test of Increase in Fecal Protein Concentration Using Mice For the experiment, 6-week old male ICR mice were used. The experiment was carried out in five mice per group. […] The protein concentration in the obtained supernatant was measured by a Bradford method, and the amount of the protein in 1 g of feces was calculated by dividing the protein concentration in the feces by the total weight of feces. […] For the compounds that were evaluated multiple times, the average values were calculated. […]
Where a name gives a salt, the structure may show the parent alone.
// return numeric value only (unit: %, not printed)

Solved entries:
[
  {
    "compound": "N=C(N)Nc1ccc(C(=O)Oc2ccc3c(c2)CCCC3CC(=O)N(CC(=O)O)[C@@H](Cc2ccccc2)C(=O)O)cc1 (stereo partly drawn)",
    "response vs control in vivo at 5 mg/kg / %": 215
  },
  {
    "compound": "N=C(N)Nc1ccc(C(=O)Oc2ccc3cc(C(=O)N(CC(=O)O)Cc4csc(C(=O)O)c4)ccc3c2)cc1 [Example 1, monohydrochloride]",
    "response vs control in vivo at 5 mg/kg / %": 200
  },
  {
    "compound": "N=C(N)Nc1ccc(C(=O)Oc2ccc3c(c2)CCC3CC(=O)N(CCC(=O)O)Cc2csc(C(=O)O)c2)cc1 (stereo not drawn)",
    "response vs control in vivo at 5 mg/kg / %": 156
  }
]

Entry N=C(N)Nc1ccc(C(=O)Oc2ccc3c(c2)CCCC3CC(=O)N(CC(=O)O)Cc2cccc(C(=O)O)c2)cc1 (single isomer, unassigned) — recorded response vs control in vivo at 5 mg/kg = 188

For reference, reported response vs control in vivo at 5 mg/kg for "N=C(N)Nc1ccc(C(=O)Oc2ccc3c(C(=O)N(CC(=O)O)Cc4cccc(CC(=O)O)c4)cccc3c2)cc1" stands at 204

Note to self: response vs control in vivo at 5 mg/kg recorded for N=C(N)Nc1ccc(C(=O)Oc2ccc3c(c2)CCCC3CC(=O)N(CCC(=O)O)Cc2csc(C(=O)O)c2)cc1 (stereo not drawn) was 230

Data origin: patent US9969709B2
